assay: Acute toxicity (LD50) in rats; conditions: rat, in vivo, iv
Friendly reminder: LD50 below 20 mg/kg is Y, at or above is N.

Query string: Is LD50 of CCN(CCCCOC(=O)c1ccc(OC)c(OC)c1)C(C)Cc1ccc(OC)cc1.Cl (stereo not shown) [Mebeverine, reference compound] strictly below 20 mg/kg?
Result string: Y

Query string: Is LD50 of CCN(CCCCCCOC(=O)c1ccc(OC)c(OC)c1)C1CCc2ccccc2C1.Cl (stereo not shown) strictly below 20 mg/kg?
Result string: Y

Query string: Is LD50 of CCN(CCCCOC(=O)c1ccc(OC)c(OC)c1)C1CCc2cc(OC)c(OC)cc2C1.Cl (stereo not shown) strictly below 20 mg/kg?
Result string: Y

Query string: Is LD50 of CCCN(CCCCOC(=O)c1ccc(OC)c(OC)c1)C1CCc2cc(OC)ccc2C1.Cl (stereo not shown) strictly below 20 mg/kg?
Result string: N

Query string: Is LD50 of CCN(CCCCOC(=O)c1ccc(OC)c(OC)c1)C1CCc2cc(OC)ccc2C1.Cl (stereo not shown) strictly below 20 mg/kg?
Result string: Y

Query string: Is LD50 of CCN(CCCCCCOC(=O)c1ccc(OC)c(OC)c1)C1CCc2cc(OC)c(OC)cc2C1.Cl (stereo not shown) strictly below 20 mg/kg?
Result string: Y

Query string: Is LD50 of CCN(CCCCCCOC(=O)c1ccc(OC)c(OC)c1)C1CCc2cc(OC)ccc2C1.Cl (stereo not shown) strictly below 20 mg/kg?
Result string: N

----------
assay: Effect on colonic motility stimulated by neostigmine in rats; format: in vivo, rat (male STD Wistar strain); settings: rat, in vivo, po
Lab note: compare safety margin (LD50/ED50) against 300. Equal or greater, write y. Smaller, write n.

Query string: Form field: safety margin (LD50/ED50) at least 300? Entry: CCN(CCCCCCOC(=O)c1ccc(OC)c(OC)c1)C1CCc2cc(OC)c(OC)cc2C1.Cl (stereo not shown) [Compound G, hydrochloride]
Result string: y

Query string: Form field: safety margin (LD50/ED50) at least 300? Entry: COc1ccc2c(c1)CCC(N(CCCCOC(=O)c1ccc(OC)c(OC)c1)C(C)C)C2.Cl (stereo not shown) [Compound L, hydrochloride]
Result string: n

Query string: Form field: safety margin (LD50/ED50) at least 300? Entry: CCN(CCCCCCOC(=O)c1ccc(OC)c(OC)c1)C1CCc2cc(OC)ccc2C1.Cl (stereo not shown) [Compound D, hydrochloride]
Result string: y

Query string: Form field: safety margin (LD50/ED50) at least 300? Entry: CCN(CCCCCCOC(=O)c1ccc(OC)c(OC)c1)C1CCc2ccccc2C1.Cl (stereo not shown) [Compound B, hydrochloride]
Result string: y

Query string: Form field: safety margin (LD50/ED50) at least 300? Entry: CCN(CCCCOC(=O)c1ccc(OC)c(OC)c1)C1CCc2cc(OC)c(OC)cc2C1.Cl (stereo not shown) [Compound F, hydrochloride]
Result string: n

Query string: Form field: safety margin (LD50/ED50) at least 300? Entry: CCCN(CCCCOC(=O)c1ccc(OC)c(OC)c1)C1CCc2cc(OC)ccc2C1.Cl (stereo not shown) [Compound E, hydrochloride]
Result string: n

----------
test system: colonic contraction caused by stimulation of pelvic nerve; assay: Effect on colonic contraction caused by stimulation of pelvic nerve in anesthetized dogs; type: in vivo, dog (mongrel dogs of both sexes); conditions: Canis lupus familiaris, iv; 100 μg/kg, i.v.; pelvic nerve stimulation; anesthetized dogs; read-out: % Inhibition of Colonic Contraction
Where a name gives a salt, the structure may show the parent alone.
So I've got a bunch of compounds here, and I need their inhibition in vivo at 0.1 mg/kg values.
Hi! Could you send only the number? It should be in %, unit omitted.

Query string: Determine from records and report inhibition in vivo at 0.1 mg/kg for CCN(CCCCOC(=O)c1ccc(OC)c(OC)c1)C1CCc2cc(OC)c(OC)cc2C1.Cl (stereo not drawn) [Compound F, hydrochloride]
Result string: 63.8

Query string: Determine from records and report inhibition in vivo at 0.1 mg/kg for CCN(CCCCOC(=O)c1ccc(OC)c(OC)c1)C1CCc2ccc(OC)cc2C1 (stereo not drawn) [Compound H, hydrochloride]
Result string: 30.9

Query string: Determine from records and report inhibition in vivo at 0.1 mg/kg for CCN(CCCCOC(=O)c1ccc(OC)c(OC)c1)C1CCc2ccccc2C1 (stereo not drawn) [Compound A, hydrochloride]
Result string: 27.9

Query string: Determine from records and report inhibition in vivo at 0.1 mg/kg for CCN(CCCCCCOC(=O)c1ccc(OC)c(OC)c1)C1CCc2ccccc2C1.Cl (stereo not drawn) [Compound B, hydrochloride]
Result string: 56

Query string: Determine from records and report inhibition in vivo at 0.1 mg/kg for CCN(CCCCOC(=O)c1ccc(OC)c(OC)c1)C1CCc2cccc(OC)c2C1 (stereo not drawn) [Compound K, hydrochloride]
Result string: 40

Query string: Determine from records and report inhibition in vivo at 0.1 mg/kg for CCCN(CCCCOC(=O)c1ccc(OC)c(OC)c1)C1CCc2cc(OC)ccc2C1.Cl (stereo not drawn) [Compound E, hydrochloride]
Result string: 22.4

Query string: Determine from records and report inhibition in vivo at 0.1 mg/kg for CCN(CCCCOC(=O)c1ccc(OC)c(OC)c1)C1CCc2cc(OC)ccc2C1.Cl (stereo not drawn) [Compound C, hydrochloride]
Result string: 20

Query string: Determine from records and report inhibition in vivo at 0.1 mg/kg for CCN(CCCCCCOC(=O)c1ccc(OC)c(OC)c1)C1CCc2cc(OC)c(OC)cc2C1.Cl (stereo not drawn) [Compound G, hydrochloride]
Result string: 54.2

Query string: Determine from records and report inhibition in vivo at 0.1 mg/kg for CCN(CCCCCCOC(=O)c1ccc(OC)c(OC)c1)C1CCc2cc(OC)ccc2C1.Cl (stereo not drawn) [Compound D, hydrochloride]
Result string: 54.7

----------
So I've got a bunch of molecules here, and I need their LD50 values.
assay: Acute toxicity (LD50) in rats; conditions: rat, in vivo, po
Hi! Could you send only the number? It should be in mg/kg, unit omitted.

Query string: Determine from records and report LD50 for CCN(CCCCCCOC(=O)c1ccc(OC)c(OC)c1)C1CCc2cc(OC)ccc2C1.Cl (centres unmarked)
Result string: 2830

Query string: Determine from records and report LD50 for CCN(CCCCOC(=O)c1ccc(OC)c(OC)c1)C1CCc2cc(OC)c(OC)cc2C1.Cl (centres unmarked)
Result string: 1540

Query string: Determine from records and report LD50 for CCN(CCCCCCOC(=O)c1ccc(OC)c(OC)c1)C1CCc2cc(OC)c(OC)cc2C1.Cl (centres unmarked)
Result string: 561

Query string: Determine from records and report LD50 for CCCN(CCCCOC(=O)c1ccc(OC)c(OC)c1)C1CCc2cc(OC)ccc2C1.Cl (centres unmarked)
Result string: 707

Query string: Determine from records and report LD50 for CCN(CCCCOC(=O)c1ccc(OC)c(OC)c1)C(C)Cc1ccc(OC)cc1.Cl (centres unmarked) [Mebeverine, reference compound]
Result string: 1540

Query string: Determine from records and report LD50 for COc1ccc2c(c1)CCC(N(CCCCOC(=O)c1ccc(OC)c(OC)c1)C(C)C)C2.Cl (centres unmarked)
Result string: 1540

----------
assay: Effect on colonic motility stimulated by neostigmine in rats; format: in vivo, rat (male STD Wistar strain); conditions: rat, in vivo, iv
So I've got a bunch of compounds here, and I need their safety margin (LD50/ED50) values.
The answer should be a number; do not append a unit.

Query string: Determine from records and report safety margin (LD50/ED50) for CCN(CCCCCCOC(=O)c1ccc(OC)c(OC)c1)C1CCc2cc(OC)ccc2C1.Cl (stereo not drawn) [Compound D, hydrochloride]
Result string: 767

Query string: Determine from records and report safety margin (LD50/ED50) for CCCN(CCCCOC(=O)c1ccc(OC)c(OC)c1)C1CCc2cc(OC)ccc2C1.Cl (stereo not drawn) [Compound E, hydrochloride]
Result string: 129

Query string: Determine from records and report safety margin (LD50/ED50) for CCN(CCCCCCOC(=O)c1ccc(OC)c(OC)c1)C1CCc2ccccc2C1.Cl (stereo not drawn) [Compound B, hydrochloride]
Result string: 206

Query string: Determine from records and report safety margin (LD50/ED50) for CCN(CCCCCCOC(=O)c1ccc(OC)c(OC)c1)C1CCc2cc(OC)c(OC)cc2C1.Cl (stereo not drawn) [Compound G, hydrochloride]
Result string: 885

Query string: Determine from records and report safety margin (LD50/ED50) for CCN(CCCCOC(=O)c1ccc(OC)c(OC)c1)C1CCc2cc(OC)ccc2C1.Cl (stereo not drawn) [Compound C, hydrochloride]
Result string: 114

Query string: Determine from records and report safety margin (LD50/ED50) for CCN(CCCCOC(=O)c1ccc(OC)c(OC)c1)C1CCc2cc(OC)c(OC)cc2C1.Cl (stereo not drawn) [Compound F, hydrochloride]
Result string: 648
